target: T1, Biotinylated Human Siglec-2/CD22 Protein, Fc, Avitag (ACROBiosystems, SI2-H82F8) (human, UniProt P20273 20-687, biotinylated (Avitag)); assay: SPR (Biacore 8K), CD22-Fc-biotin on SA chip, antibody as analyte, 1:1 binding model
T1 construct: Bought reagent; also called CD22 antigen; CD22-Fc-biotinylated antigen; not shown: Fc tag of the bought protein; Avitag

binder	Kd, nM
mAb-3 (antibody, human IgG1, kappa, V domains shown, Humanized IgG1/kappa antibody; also called V1 HC + V2 LC) VH: EVQLVESGGGLVKPGGSLRLSCAASGFAFSIYDMSWVRQAPGKCLEWVAYISSGGGTTYYPDSVKGRFTISRENAKNSLYLQMNSLKSEDTAMYYCARHSGYGTHWGVLFAYWGQGTMVTVSS VL: DIQMTQSTSTLSASVGDRVTITCRASQDISNYLNWYQQRPDGSVKLLIYYTSILHSGVPSRFSGSGSGTDYTLTISSLQDEDFATYFCQQGNTLPWTFGCGTKVEIKR	0.713
mAb-5 (antibody, human IgG1, kappa, V domains shown, Humanized IgG1/kappa antibody; also called V5 HC + V4 LC) VH: EVQLVESGGGLVKPGGSLRLSCAASGFAFSIYDMSWIRQAPGKCLEWVAYISSGGGTTYYPGSVKGRFTISRENAKNSLYLQMNSLRSEDTAVYYCARHSGYGTHWGVLFAYWGQGTMVTVSS VL: DIQMTQSPSTLSASVGDRVTITCRASQDISNYLNWFQQRPGQSPRLLIYYTSILHSGVPSRFSGSGSGTDYTLTISSLQPEDFATYYCQQGNTLPWTFGCGTKVEIKR	0.382
mAb-1 (antibody, human IgG1, kappa, V domains shown, Reconstructed IgG1/kappa antibody, humanized heavy chain with HA22 light chain; also called V2 HC + HA22 LC) VH: EVQLVESGGGLVKPGGSLRLSCAASGFAFSIYDMSWVRQTPEKCLEWVAYISSGGGTTYYPDSVKGRFTISRENAKNSLYLQMNSLKSEDTAMYYCARHSGYGTHWGVLFAYWGQGTMVTVSS VL: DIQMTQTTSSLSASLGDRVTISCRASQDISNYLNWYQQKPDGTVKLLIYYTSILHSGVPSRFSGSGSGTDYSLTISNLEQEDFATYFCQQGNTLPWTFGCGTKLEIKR	0.604
